system: Saccharomyces cerevisiae; experiment: Inhibition of baker's yeast alpha-glucosidase at 300 uM using p-nitrophenyl alpha-D-glucopyranoside as substrate preincubated for 15 mins followed by substrate addition measured for 20 mins by spectrophotometric analysis relative to control
readout.label: inhibition (%)
I only need the number, in %, no unit after it.

Here's what some known entries look like.
>  <molecular.string>
NNC(=O)Cn1c(-c2nc3ccccc3n2CC(=O)NN)nc2ccccc21

>  <inhibition (%)>
45.8

$$$$
>  <molecular.string>
O=C(Cn1c(-c2nc3ccccc3n2CC(=O)NNC(=S)NCc2ccccc2)nc2ccccc21)NNC(=S)NCc1ccccc1

>  <inhibition (%)>
23.2

$$$$
>  <molecular.string>
Sc1nnc(Cn2c(-c3nc4ccccc4n3Cc3nnc(S)n3-c3ccccc3)nc3ccccc32)n1-c1ccccc1

>  <inhibition (%)>
100

$$$$
>  <molecular.string>
c1ccc(Nc2nnc(Cn3c(-c4nc5ccccc5n4Cc4nnc(Nc5ccccc5)s4)nc4ccccc43)s2)cc1

>  <inhibition (%)>
42.7

$$$$
>  <molecular.string>
O=[N+]([O-])c1ccc2nc(-c3nc4ccc([N+](=O)[O-])cc4n3Cc3nnc(NCc4ccccc4)s3)n(Cc3nnc(NCc4ccccc4)s3)c2c1

>  <inhibition (%)>
48.4

$$$$
>  <molecular.string>
CCOC(=O)Cn1c(-c2nc3ccc([N+](=O)[O-])cc3n2CC(=O)OCC)nc2ccc([N+](=O)[O-])cc21

>  <inhibition (%)>
85.8

$$$$

Request: Return reported inhibition; argument: O=[N+]([O-])c1ccc2nc(-c3nc4ccc([N+](=O)[O-])cc4n3Cc3nnc(Nc4ccccc4)s3)n(Cc3nnc(Nc4ccccc4)s3)c2c1
Response: 89.1

Request: And O=[N+]([O-])c1ccc2nc(-c3nc4ccc([N+](=O)[O-])cc4n3Cc3nnc(S)n3Cc3ccccc3)n(Cc3nnc(S)n3Cc3ccccc3)c2c1 ?
Response: 35.8

Request: And O=C(Cn1c(-c2nc3ccc([N+](=O)[O-])cc3n2CC(=O)NNC(=S)Nc2ccccc2)nc2ccc([N+](=O)[O-])cc21)NNC(=S)Nc1ccccc1 ?
Response: 100

* * *

assay: Inhibition of baker's yeast alpha-glucosidase using p-nitrophenyl alpha-D-glucopyranoside as substrate preincubated for 15 mins followed by substrate addition measured for 20 mins by spectrophotometric analysis; set-up: species or system Saccharomyces cerevisiae
pIC50: −log10 of the molar value.
Label Satisfied when pIC50 is at or above 6; anything below gets Not satisfied.

>  <molecule>
O=[N+]([O-])c1ccc2nc(-c3nc4ccc([N+](=O)[O-])cc4n3Cc3nnc(Nc4ccccc4)s3)n(Cc3nnc(Nc4ccccc4)s3)c2c1

>  <class>
Not satisfied

$$$$
>  <molecule>
O=[N+]([O-])c1ccc2nc(-c3nc4ccc([N+](=O)[O-])cc4[nH]3)[nH]c2c1

>  <class>
Satisfied

$$$$
>  <molecule>
O=C(Cn1c(-c2nc3ccc([N+](=O)[O-])cc3n2CC(=O)NNC(=S)NCc2ccccc2)nc2ccc([N+](=O)[O-])cc21)NNC(=S)NCc1ccccc1

>  <class>
Satisfied

$$$$
>  <molecule>
Sc1nnc(Cn2c(-c3nc4ccccc4n3Cc3nnc(S)n3-c3ccccc3)nc3ccccc32)n1-c1ccccc1

>  <class>
Not satisfied

$$$$
>  <molecule>
CCOC(=O)Cn1c(-c2nc3ccc([N+](=O)[O-])cc3n2CC(=O)OCC)nc2ccc([N+](=O)[O-])cc21

>  <class>
Not satisfied

$$$$

Request: # bool: pIC50 of C[C@H]1O[C@H](O[C@H]2[C@H](O)[C@@H](O)[C@@H](O[C@H]3[C@H](O)[C@@H](O)C(O)O[C@@H]3CO)O[C@@H]2CO)[C@H](O)[C@@H](O)[C@@H]1N[C@H]1C=C(CO)[C@@H](O)[C@H](O)[C@H]1O (stereo partly drawn) >= 6
Response: Not satisfied

Request: And NNC(=O)Cn1c(-c2nc3ccc([N+](=O)[O-])cc3n2CC(=O)NN)nc2ccc([N+](=O)[O-])cc21 ?
Response: Satisfied
